Property: Inhibition zone; scope: individual compounds
# System: Acinetobacter baumannii isolates
# Test Name: Antimicrobial susceptibility test, disc diffusion method (CLSI M100-S24)
# Format: cell-based
# Cond: isolate AB33; disc diffusion
Number in mm, nothing else.

Consider the reported Inhibition zone for these compounds:
CO/N=C(\C(=O)N[C@@H]1C(=O)N2C(C(=O)O)=C(COC(C)=O)CS[C@H]12)c1csc(N)n1 [CTX, Cefotaxime]; 21
CC(C)(O/N=C(\C(=O)N[C@@H]1C(=O)N2C(C(=O)[O-])=C(C[n+]3ccccc3)CS[C@H]12)c1csc(N)n1)C(=O)O [CAZ, Ceftazidime]; 22
CO/N=C(\C(=O)N[C@@H]1C(=O)N2C(C(=O)[O-])=C(C[N+]3(C)CCCC3)CS[C@H]12)c1csc(N)n1 [FEP, Cefepime]; 18
NCC[C@H](O)C(=O)N[C@@H]1C[C@H](N)[C@@H](O[C@H]2O[C@H](CN)[C@@H](O)[C@H](O)[C@H]2O)[C@H](O)[C@H]1O[C@H]1O[C@H](CO)[C@@H](O)[C@H](N)[C@H]1O [AK, Amikacin]; 25
CCN1CCN(C(=O)N[C@@H](C(=O)N[C@@H]2C(=O)N3[C@@H]2SC(C)(C)[C@@H]3C(=O)O)c2ccccc2)C(=O)C1=O [PIP, Piperacillin]; 22

GET /value?item= NC[C@@H]1O[C@H](O[C@H]2[C@@H](O)[C@H](O[C@@H]3[C@@H](O)[C@H](N)C[C@H](N)[C@H]3O[C@H]3O[C@H](CN)[C@@H](O)[C@H](O)[C@H]3N)O[C@@H]2CO)[C@H](N)[C@@H](O)[C@@H]1O [NEO, Neomycin] &field=Inhibition zone returns 20

GET /value?item= CN(C)[C@@H]1C(O)=C(C(N)=O)C(=O)[C@@]2(O)C(O)=C3C(=O)c4c(O)cccc4[C@@](C)(O)[C@H]3C[C@@H]12 [TET, Tetracycline] &field=Inhibition zone returns 24

GET /value?item= O=C(N[C@H](CO)[C@H](O)c1ccc([N+](=O)[O-])cc1)C(Cl)Cl [CHL, Chloramphenicol] &field=Inhibition zone returns 18

GET /value?item= C[C@H]1COc2c(N3CCN(C)CC3)c(F)cc3c(=O)c(C(=O)O)cn1c23 [LEV, Levofloxacin] &field=Inhibition zone returns 30

GET /value?item= C[C@H]1[C@H](NC(=O)/C(=N\OC(C)(C)C(=O)O)c2csc(N)n2)C(=O)N1S(=O)(=O)O [ATM, Aztreonam] &field=Inhibition zone returns 9
